Measured inhibition accompanies every entry in the list below.
# experimental protocol: PhoP regulon inhibitors, Salmonella typhi PhoP promoter GFP reporter, confirmatory (AID 1850);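 further: 0% = induced wells with vehicle and 100% = uninduced wells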
# assay conditions: fluorescence, 4 h, at 50 µM, active compounds read high
In all, about 310,000 compounds went through this assay and about 1,000 (0.32%) were called active. The list is a sample of the results. Entries with a potency or affinity are not part of this list.
measurement label: inhibition

compound=Cn1c(SCC(=O)N/N=C/c2cc([N+](=O)[O-])ccc2O)nnc1-c1ccccc1 endpoint_value="2.1% (inactive)"
compound="C=CCOCCN1C(=O)C2C(c3ccccc3)C=CC(c3ccccc3)C2C1=O (stereo unspecified)" endpoint_value="5.25% (inactive)"
compound=O=C(CN1CCN(c2ccc([N+](=O)[O-])cc2Cl)CC1)N1CCOCC1 endpoint_value="2.81% (inactive)"
compound=O=[N+]([O-])c1cccc(-c2cc3ccccc3[nH]2)c1 endpoint_value="-7.23% (inactive)"
compound=COc1ccc(S(=O)(=O)N2CCc3ccccc32)cc1C(=O)O endpoint_value="0.91% (inactive)"
compound="Cc1cccn2c(=O)c(C(=O)NCCCN3CC(C)CC(C)C3)c(O)nc12 (stereo unspecified)" endpoint_value="0.48% (inactive)"

* * *

# experimental protocol: PhoP regulon inhibitors, Salmonella typhi PhoP promoter GFP reporter, confirmatory (AID 1850);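 further: 0% = induced wells with vehicle and 100% = uninduced wells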
# assay conditions: fluorescence, 4 h, at 50 µM, active compounds read high
About 1,000 (0.32%) of roughly 310,000 compounds were called active. A selection follows. Measured potencies and affinities stand elsewhere.
Measured inhibition accompanies every entry in the list below.
measurement label: inhibition (%)

compound=Cc1cccc(-n2cc(-c3ccccc3)c3c(=O)[nH]cnc32)c1 measurement_label=inhibition endpoint_value=-10.3
compound=O=C(CCN1CCN(c2ccccc2)CC1)Nc1ccc(Cl)cc1 measurement_label=inhibition endpoint_value=11.6
compound=Cc1nnc(NC(=O)CCSc2ccc(Cl)cc2)s1 measurement_label=inhibition endpoint_value=-3
compound=O=C(c1ccc(Br)cc1)N1CCN(Cc2ccccc2)CC1 measurement_label=inhibition endpoint_value=-4.12
compound="CCOC(=O)CC1C(=O)NCCN1C(=O)c1cccc(OC)c1 (configuration not stated)" measurement_label=inhibition endpoint_value=-7.55
compound=O=C(CCc1ccccc1)NNC(=O)c1ccccc1Br measurement_label=inhibition endpoint_value=-5.24
compound=c1ccc(CN2CCN(c3nc(N4CCOCC4)c4ccccc4n3)CC2)cc1 measurement_label=inhibition endpoint_value=-3.61

* * *

# experimental protocol: PhoP regulon inhibitors, Salmonella typhi PhoP promoter GFP reporter, confirmatory (AID 1850);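 further: 0% = induced wells with vehicle and 100% = uninduced wells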
# assay conditions: fluorescence, 4 h, at 50 µM, active compounds read high
In all, about 310,000 compounds went through this assay and about 1,000 (0.32%) were called active. The list is a sample of the results. Entries with a potency or affinity are not part of this list.
measurement label: inhibition (%)

molecule="CC(C)C(=O)NC(c1ccc(Cl)cc1Cl)c1ccc2cccnc2c1O (stereo not given)" measurement_label=inhibition endpoint_value=-2.63
molecule=O=C(NCc1nc(-c2ccccc2)no1)c1cccs1 measurement_label=inhibition endpoint_value=-6.48
molecule=O=C1c2ccccc2C(=O)N1CCCc1c[nH]c2ccccc12 measurement_label=inhibition endpoint_value=-2.4
molecule=CCOC(=O)c1nc2c(=O)n(C)c(=O)n(C)c2n(C)c1=O measurement_label=inhibition endpoint_value=2.99
molecule=CC(C)c1ccc(NC(=S)N2CCN(Cc3ccccc3)CC2)cc1 measurement_label=inhibition endpoint_value=14.4
molecule=CCCCCCSc1cc(-c2nc3cc(C)ccn3c2NCCCC)ccc1OC measurement_label=inhibition endpoint_value=0.7
molecule=Cc1ccc(OCCn2cc(C#N)c3ccccc32)cc1 measurement_label=inhibition endpoint_value=-3.38
molecule="CCOc1ccc(N2C(=O)CC(NCCc3c[nH]c4ccccc34)C2=O)cc1 (stereo not given)" measurement_label=inhibition endpoint_value=6.97
molecule=C[N+](C)(C)CCCCCC[N+](C)(C)C measurement_label=inhibition endpoint_value=-25.1
molecule="CC1CCCN(C(=O)C23CCC(C)(C(=O)C2)C3(C)C)C1 (stereo not given)" measurement_label=inhibition endpoint_value=-4.73
molecule="CCCCCSc1cc(O)c(C(CNC)C(C)C)cc1OC (stereo not given)" measurement_label=inhibition endpoint_value=-3.45
molecule="OCC1(Cc2ccc(F)cc2)CCCN(CCc2ccccc2)C1 (stereo not given)" measurement_label=inhibition endpoint_value=0.44
molecule=COc1ccc(Cc2c(C)nc(N)nc2Cl)cc1 measurement_label=inhibition endpoint_value=-7.38
molecule=Cc1cc(C(=O)Nc2cccnc2)no1 measurement_label=inhibition endpoint_value=-7.65
molecule=NC(=S)N=Nc1c(O)[nH]c2ccccc12 measurement_label=inhibition endpoint_value=-2.48
molecule=C#CC[N+](C)(C)CCCCCCCCCC measurement_label=inhibition endpoint_value=2.68
molecule=Cc1ccc(CNC(=O)C(=O)NCCC2=CCCCC2)cc1 measurement_label=inhibition endpoint_value=-20.6
molecule=CCOc1cccc2sc(=NC(=O)CCS(=O)(=O)c3ccc(F)cc3)n(C)c12 measurement_label=inhibition endpoint_value=-5.1
molecule=C[N+](C)(C)CCCCCCCCCC[N+](C)(C)C measurement_label=inhibition endpoint_value=8.92
molecule=Clc1ccc(-c2csc(N3CCc4ccccc4C3)n2)cc1 measurement_label=inhibition endpoint_value=5.55
molecule="O=C(CC(n1cncn1)C(Cl)(Cl)Cl)c1ccc([N+](=O)[O-])cc1 (stereo not given)" measurement_label=inhibition endpoint_value=-2.18
molecule=Cc1nc2c(C#N)cnn2c2c1CCN(Cc1ccccc1)N2C measurement_label=inhibition endpoint_value=0.51
molecule="O=C(NCCCc1ccncc1)C1CCC(=O)N(Cc2ccc(Cl)cc2)C1 (stereo not given)" measurement_label=inhibition endpoint_value=2.99
molecule=C=C(C)Cn1c(SCC(=O)N/N=C/c2ccccc2)nc2ccccc2c1=O measurement_label=inhibition endpoint_value=2.73
molecule=O=[N+]([O-])c1ccc(/C=[N+](\[O-])[C@@H]2CCCC[C@@H]2/[N+]([O-])=C/c2ccc([N+](=O)[O-])o2)o1 measurement_label=inhibition endpoint_value=7.15
molecule=O=C(COC(=O)c1ccc(Cl)c(S(=O)(=O)N2CCCC2)c1)NC1CCCCC1 measurement_label=inhibition endpoint_value=5.96
molecule="COc1cccc(C2(O)CC(C(F)(F)F)=NN2C(=O)c2ccccn2)c1 (stereo not given)" measurement_label=inhibition endpoint_value=7.91
molecule=Cc1cc(NC(=O)CSCC(=O)N2CCN(c3cccc(C(F)(F)F)c3)CC2)no1 measurement_label=inhibition endpoint_value=6.28
molecule=CC/C(=N\NC(=O)c1ccncc1)C12CC3CC(CC(C3)C1)C2 measurement_label=inhibition endpoint_value=8.69
molecule=CNCCc1ccc(OC)c(OC)c1 measurement_label=inhibition endpoint_value=10.9
molecule=C=CCc1cc(C)ccc1OCCCC(C(=O)OCC)C(=O)OCC measurement_label=inhibition endpoint_value=-4.53
molecule=Clc1ccc(CNCCC2=CCCCC2)cc1 measurement_label=inhibition endpoint_value=-4.93
molecule=CCc1ccccc1N(CC(=O)N1CCCC1)S(C)(=O)=O measurement_label=inhibition endpoint_value=6.01
molecule=CC(=O)CCC(=O)OCC(=O)Nc1ccc(SC(F)F)cc1 measurement_label=inhibition endpoint_value=-3.54
molecule=CN(CCn1ccnc1)Cc1cn(Cc2ccccc2)nc1-c1ccc2c(c1)OCO2 measurement_label=inhibition endpoint_value=8.95
molecule=Cc1nc(N)nc(Cl)c1Cc1ccc(Cl)cc1 measurement_label=inhibition endpoint_value=-7.07
molecule=Cc1cc(C)cc(NC(=O)CSc2nccn2Cc2ccco2)c1 measurement_label=inhibition endpoint_value=-0.51
molecule=CCCCCC[N+](C)(C)CCSSCC[N+](C)(C)CCCCCC measurement_label=inhibition endpoint_value=5.58
molecule=O=C(N=Nc1c(O)[nH]c2ccccc12)c1ccc(CN2CCOCC2)cc1 measurement_label=inhibition endpoint_value=8.21
molecule=O=C(NCCC1=CCCCC1)C(=O)NCc1ccccc1 measurement_label=inhibition endpoint_value=-1.97
